System: Danio rerio
assayProtocol: Cardioprotective activity in (cmlc2:GFP) transgenic Zebrafish assessed as reduction in doxorubicin-induced cardiac edema measured after 48 hrs
Type: functional, organism-based
metricName: Activity

Known Activity results, listed for orientation:
[
  {
    "molecule": "COc1ccc(C(=O)OC[C@@H]2C(=O)[C@@]3(C)CC[C@H]4[C@]5(C)CCC[C@@](C)(C(=O)O)[C@H]5CC[C@@]24C3)c(OC)c1OC",
    "Activity": "Dose-Dependent Effect"
  },
  {
    "molecule": "COc1cc(C(=O)OC[C@@H]2C(=O)[C@@]3(C)CC[C@H]4[C@]5(C)CCC[C@@](C)(N)[C@H]5CC[C@@]24C3)cc(OC)c1OC",
    "Activity": "Dose-Dependent Effect"
  },
  {
    "molecule": "COc1cc(C(=O)OC[C@@H]2C(=O)[C@@]3(C)CC[C@H]4[C@]5(C)CCC[C@@](C)(C(=O)O)[C@H]5CC[C@@]24C3)cc(OC)c1OC",
    "Activity": "Dose-Dependent Effect"
  },
  {
    "molecule": "C[C@@]12CC[C@@H]3[C@@](CC[C@H]4[C@@]3(C)CCC[C@@]4(C)N)(CC1=O)C2",
    "Activity": "Dose-Dependent Effect"
  }
]

Return reported Activity; argument: `COc1ccc(C(=O)OC[C@@H]2C(=O)[C@@]3(C)CC[C@H]4[C@]5(C)CCC[C@@](C)(N)[C@H]5CC[C@@]24C3)c(OC)c1OC`
Dose-Dependent Effect

Now this one: C[C@@]12CC[C@@H]3[C@@](CC[C@H]4[C@@]3(C)CCC[C@@]4(C)C(=O)O)(CC1=O)C2 [ISOSTEVIOL]
Dose-Dependent Effect
